system: NCI-H1915; test: relative viability (nuclei count vs DMSO), 5 days (fraction); higher = more cells survive; details: first compound 0.1265 µM
Could you mark each record condition met if its relative viability falls strictly under 0.7, and condition not met if it equals or exceeds it?

{"columns": ["compound", "assigned label"],
 "data": [
  ["Cc1sc2c(c1C)C(c1ccc(Cl)cc1)=N[C@@H](CC(=O)OC(C)(C)C)c1nnc(C)n1-2 [JQ1] + CC1(C)CCC(c2ccc(Cl)cc2)=C(CN2CCN(c3ccc(C(=O)NS(=O)(=O)c4ccc(N[C@H](CCN5CCOCC5)CSc5ccccc5)c(S(=O)(=O)C(F)(F)F)c4)cc3)CC2)C1 [Navitoclax] (partner 0.5 µM)", "condition met"],
  ["Cc1sc2c(c1C)C(c1ccc(Cl)cc1)=N[C@@H](CC(=O)OC(C)(C)C)c1nnc(C)n1-2 [JQ1] + N=C(N)NC(=N)NCCc1ccccc1 [Phenformin] (partner 250 µM)", "condition met"],
  ["Cc1sc2c(c1C)C(c1ccc(Cl)cc1)=N[C@@H](CC(=O)OC(C)(C)C)c1nnc(C)n1-2 [JQ1] + CCNC(=O)c1noc(-c2cc(C(C)C)c(O)cc2O)c1-c1ccc(CN2CCOCC2)cc1 [Luminespib] (partner 0.01 µM)", "condition met"],
  ["Cc1sc2c(c1C)C(c1ccc(Cl)cc1)=N[C@@H](CC(=O)OC(C)(C)C)c1nnc(C)n1-2 [JQ1] + CS(=O)(=O)N1CCN(Cc2cc3nc(-c4cccc5[nH]ncc45)nc(N4CCOCC4)c3s2)CC1 [Pictilisib] (partner 1 µM)", "condition not met"],
  ["Cc1sc2c(c1C)C(c1ccc(Cl)cc1)=N[C@@H](CC(=O)OC(C)(C)C)c1nnc(C)n1-2 [JQ1] + CS(=O)(=O)CCNCc1ccc(-c2ccc3ncnc(Nc4ccc(OCc5cccc(F)c5)c(Cl)c4)c3c2)o1 [Lapatinib] (partner 2 µM)", "condition met"]
]}
